Here we list molecules with their recorded log10 of Ki when tested on Kappa-type opioid receptor (Homo sapiens, UniProt P41145).
Sequence (P41145 whole entry): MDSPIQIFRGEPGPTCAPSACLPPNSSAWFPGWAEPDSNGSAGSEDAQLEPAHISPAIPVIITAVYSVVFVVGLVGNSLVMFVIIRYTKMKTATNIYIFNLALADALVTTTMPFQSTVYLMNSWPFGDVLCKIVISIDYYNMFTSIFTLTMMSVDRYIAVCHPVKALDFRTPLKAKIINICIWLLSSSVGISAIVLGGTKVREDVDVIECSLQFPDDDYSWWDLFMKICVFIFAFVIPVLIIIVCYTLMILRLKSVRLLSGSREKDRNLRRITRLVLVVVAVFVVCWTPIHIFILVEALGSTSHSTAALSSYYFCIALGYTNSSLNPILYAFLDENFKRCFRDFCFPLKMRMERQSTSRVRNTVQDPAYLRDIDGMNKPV
Heads up: the numbers are on a log10 scale; they represent Ki in nM.

Quick check: log10 of Ki of CCCCCCCCCC(=O)Oc1ccc2c(c1)[C@@]13CCCC[C@H]1[C@@H](C2)N(CC1CCC1)CC3 ?
-0.70

Quick check: log10 of Ki of c1cc2c(cc1OCC1CO1)[C@@]13CCCC[C@H]1[C@@H](C2)N(CC1CCC1)CC3 (stereo partly drawn) ?
1.56

Quick check: log10 of Ki of OC(COc1ccc(Cc2ccc(OCC(O)COc3ccc4c(c3)[C@@]35CCCC[C@H]3[C@@H](C4)N(CC3CCC3)CC5)cc2)cc1)COc1ccc2c(c1)[C@@]13CCCC[C@H]1[C@@H](C2)N(CC1CCC1)CC3 (stereo partly drawn) ?
-0.47

Quick check: log10 of Ki of OC(COc1ccc2c(c1)[C@@]13CCCC[C@H]1[C@@H](C2)N(CC1CCC1)CC3)COc1ccc2c(c1)[C@@]13CCCC[C@H]1[C@@H](C2)N(CC1CCC1)CC3 ?
0.00

Quick check: log10 of Ki of c1cc2c(cc1OCCCOc1ccc3c(c1)[C@@]14CCCC[C@H]1[C@@H](C3)N(CC1CCC1)CC4)[C@@]13CCCC[C@H]1[C@@H](C2)N(CC1CCC1)CC3 ?
0.79

Quick check: log10 of Ki of OC(CCCCCC(O)COc1ccc2c(c1)[C@@]13CCCC[C@H]1[C@@H](C2)N(CC1CCC1)CC3)COc1ccc2c(c1)[C@@]13CCCC[C@H]1[C@@H](C2)N(CC1CCC1)CC3 (stereo partly drawn) ?
0.59

Quick check: log10 of Ki of OC(CCCC(O)COc1ccc2c(c1)[C@@]13CCCC[C@H]1[C@@H](C2)N(CC1CCC1)CC3)COc1ccc2c(c1)[C@@]13CCCC[C@H]1[C@@H](C2)N(CC1CCC1)CC3 (stereo partly drawn) ?
0.99

Quick check: log10 of Ki of OC(CCCCC(O)COc1ccc2c(c1)[C@@]13CCCC[C@H]1[C@@H](C2)N(CC1CCC1)CC3)COc1ccc2c(c1)[C@@]13CCCC[C@H]1[C@@H](C2)N(CC1CCC1)CC3 (stereo partly drawn) ?
0.52

Quick check: log10 of Ki of CCCCCCCCC(O)COc1ccc2c(c1)[C@@]13CCCC[C@H]1[C@@H](C2)N(CC1CCC1)CC3 (stereo partly drawn) ?
0.92

Quick check: log10 of Ki of OC(CCC(O)COc1ccc2c(c1)[C@@]13CCCC[C@H]1[C@@H](C2)N(CC1CCC1)CC3)COc1ccc2c(c1)[C@@]13CCCC[C@H]1[C@@H](C2)N(CC1CCC1)CC3 (stereo partly drawn) ?
1.08

Quick check: log10 of Ki of OC(CCCCCCC(O)COc1ccc2c(c1)[C@@]13CCCC[C@H]1[C@@H](C2)N(CC1CCC1)CC3)COc1ccc2c(c1)[C@@]13CCCC[C@H]1[C@@H](C2)N(CC1CCC1)CC3 (stereo partly drawn) ?
0.15

Quick check: log10 of Ki of OC(COc1ccccc1)COc1ccc2c(c1)[C@@]13CCCC[C@H]1[C@@H](C2)N(CC1CCC1)CC3 (stereo partly drawn) ?
1.34

Quick check: log10 of Ki of OC(COc1ccc2c(c1)[C@@]13CCCC[C@H]1[C@@H](C2)N(CC1CCC1)CC3)CC(O)COc1ccc2c(c1)[C@@]13CCCC[C@H]1[C@@H](C2)N(CC1CCC1)CC3 (stereo partly drawn) ?
-0.77
